Experiment: ASA and salicylic acid plasma pharmacokinetic profiles
Type: in vivo
Details: plasma, oral, 240 mg; intermediate release rate
Value Kind: Cmax

INPUT: Answer with reported Cmax of `O=C(O)c1ccccc1O`
OUTPUT: ~2.6 µg/mL

* * *

Assay: ASA and salicylic acid plasma pharmacokinetic profiles
Type: in vivo
Conditions: plasma, oral, 160 mg; intermediate release rate
Value Kind: Cmax

INPUT: Answer with reported Cmax of `O=C(O)c1ccccc1O`
OUTPUT: ~1700 ng/mL
